# Test system: NCI-H23
# assay-comment: NCI tumour cell line growth inhibition, 48 h
Activity calls are given as the source filed them. Rule as the data show it: active = GI50 up to about 1.1 µM and inactive = higher.
Possible outcomes: active, inactive

[[record]]
compound = "CC1=NN(c2nc(N)nc(-c3ccccc3S(N)(=O)=O)n2)C(C)(C)C1"
group = "inactive"

[[record]]
compound = "CC1=C2[C@@H](c3ccccc3)C3C=CC2(c2ccccc23)N(C(=O)Nc2cccc3ccccc23)C1=O (stereo partly drawn)"
group = "inactive"

[[record]]
compound = "CCN1CCC(O)(C(C(=O)O)c2ccccc2)CC1 (stereo not drawn)"
group = "inactive"

[[record]]
compound = "Cn1ccnc1CCc1ccc(Cl)cc1Cl"
group = "inactive"

[[record]]
compound = "CC(=O)Nc1ccc(-c2cc(C(=O)O)c3cc4ccccc4cc3n2)cc1"
group = "inactive"

[[record]]
compound = "Nc1c(C(=O)O)nnc2cc(Cl)c(Cl)cc12"
group = "inactive"

[[record]]
compound = "CCCCCCCCCCCCCCCC[N+](C)(C)CCl"
group = "inactive"

[[record]]
compound = "CC1(C)[N+]([O-])=[N+]([O-])C1(C)O (stereo not drawn)"
group = "inactive"

[[record]]
compound = "CCN(CC)CC[n+]1ccc2c(C)c3[nH]c4ccc(O)cc4c3c(C)c2c1"
group = "inactive"

[[record]]
compound = "CCCCCCCC/C=C(\\Br)C(O)C(Br)Br (stereo not drawn)"
group = "inactive"

[[record]]
compound = "C=CCc1cc(-c2cc(CC=C)c(O)c(CNCCCl)c2)cc(CNCCCl)c1O"
group = "inactive"

[[record]]
compound = "COc1cc2c(c3oc4c(O)cccc4c(=O)c13)CC(C(C)(O)CCl)O2 (stereo not drawn)"
group = "active"

[[record]]
compound = "CC(=O)OCC1OC(n2c(=O)[nH]c(=O)c3sccc32)C(Br)C1OC(C)=O (stereo not drawn)"
group = "inactive"

[[record]]
compound = "COc1ccc2nc3ccccc3c(NCCCCCCN(C)CCCl)c2c1"
group = "active"

[[record]]
compound = "COC(=O)c1ccccc1Nc1nc(-c2cccs2)nc2cc(OC)c(OC)cc12"
group = "inactive"

[[record]]
compound = "O=C(/C=C/c1ccco1)c1ccc(NCc2nc3ccccc3[nH]2)cc1"
group = "inactive"

[[record]]
compound = "O=c1[nH]c2cc3cccnc3c(Cl)c2nc1C(F)(F)F"
group = "inactive"

[[record]]
compound = "Cc1ccc(S(=O)(=O)NC2C(=O)c3ccccc3C(=O)C2n2ccnc2)cc1 (stereo not drawn)"
group = "inactive"

[[record]]
compound = "O=C1/C(=C/c2cc(O)c(O)c(O)c2)Oc2cc(O)cc(OC3OC(CO)C(O)C(O)C3O)c21 (stereo not drawn)"
group = "inactive"

[[record]]
compound = "Nc1ncnc2c1ncn2C1CC(O)C(CO)O1 (stereo not drawn)"
group = "inactive"

[[record]]
compound = "CCOC(=O)C1=C(C)CC2C(=O)OC(=O)C2C1(C)C (stereo not drawn)"
group = "inactive"

[[record]]
compound = "Nn1c(-c2cccc(Cl)c2)nc2ccccc2c1=O"
group = "inactive"

[[record]]
compound = "CC(=O)/C=C1\\CC(=O)Nc2ccccc2N1"
group = "inactive"

[[record]]
compound = "CNC(=O)NCCCCC(NC(C)=O)C(=O)NCc1ccccc1 (stereo not drawn)"
group = "inactive"

[[record]]
compound = "S=C(N/N=C\\C=N/NC(=S)N1CCCCC1)N1CCCCC1"
group = "inactive"

[[record]]
compound = "CC1(C)OCC([C@H]2CC23SCCCS3)O1 (stereo partly drawn)"
group = "inactive"

[[record]]
compound = "S=c1[nH]c2c(Cl)c(Cl)c(Cl)c(Cl)c2[nH]1"
group = "inactive"

[[record]]
compound = "CN(C)C(=S)/N=c1\\ssc(=S)n1C1CCCCC1"
group = "inactive"

